# PROCEDURE_TEXT: Quantitative High-Throughput drug screen in 47 multiple myeloma cell lines against the NCATS MIPE library collection: MMM1_PLB cell viability assay (AID 1918976); also: potency is read from the fitted curve at half-maximal effect; nearly all actives have a fitted effect of over 35% in size
# CONDITIONS_USED: MMM1 myeloma cells viability, CellTiter-Glo, 48 h; series mostly up to 45.8 µM
Records with an inconclusive call do not appear. Calls of active or inactive are those of the source. Calls follow the shape of the dose curve; as a rule, active = well fitted cell-killing curve with a large enough effect; inconclusive = small, poorly fitted or top-dose-only effect, or effect the other way; inactive = no such curve, though single readings can be large or run the other way.
MEASUREMENT_TYPE: Potency

For orientation, consider the following solved cases.
INSERT INTO assay_data (smiles_repr, result) VALUES
  ('Cc1cnc(Nc2ccc(N3CCN(C)CC3)cc2)nc1Nc1cccc(S(=O)(=O)NC(C)(C)C)c1', '2960 nM (active)'),
  ('C=CC(=O)Nc1ccc2ncnc(Nc3ccc(OCc4cccc(F)c4)c(Cl)c3)c2c1', '18700 nM (active)');

Please look at the following molecule next.
Exam item: Report Potency, nothing else, for this molecule: CCc1cnn2c(NCc3ccc[n+]([O-])c3)cc(N3CCCC[C@@H]3CCO)nc12
Marked response: 29.6 nM (active)

* * *

# PROCEDURE_TEXT: Quantitative High-Throughput drug screen in 47 multiple myeloma cell lines against the NCATS MIPE library collection: KMS27_JCRB cell viability assay (AID 1918970); also: nearly all actives have a fitted effect of over 30% in size; also: potency is read from the fitted curve at half-maximal effect
# CONDITIONS_USED: KMS27 myeloma cells, CellTiter-Glo ATP viability, 48 h
# Excerpt: PI: Beverly A. Mock Ph.D. Laboratory of Cancer Biology and Genetics, Center for Cancer Research, National Cancer Institute, National Institute of Health, Bethesda, Maryland […] 5; Detector; 425V; Luminescence; Viewlux PerkinElmer. […] 1. […] Briefly, the corresponding myeloma cell lines were screened in 1,536-well plates with 500 cells, 5-uL per well for inhibition of cell viability (assessed by measuring ATP levels with CellTiterGlo). […]
Records with an inconclusive call do not appear. The source made the active and inactive calls. Calls follow the shape of the dose curve; as a rule, active = well fitted cell-killing curve with a large enough effect; inconclusive = small, poorly fitted or top-dose-only effect, or effect the other way; inactive = no such curve, though single readings can be large or run the other way.
MEASUREMENT_TYPE: Potency

Solved cases below.
INSERT INTO measurements (smiles_repr, result) VALUES
  ('COc1cc(OC)cc(-c2ccc3ncc4ccc(=O)n(-c5ccc(N6CCNCC6)c(C(F)(F)F)c5)c4c3c2)c1', '1.66 µM (active)'),
  ('CC(=O)NCC(=O)N1[C@H]2CC[C@H]1c1cc(Nc3ncc(C(F)(F)F)c(NC4CCC4)n3)ccc12', '0.166 µM (active)'),
  ('C#C[C@]1(O)CC[C@@H]2[C@@H]3CCC4=CC(=O)CC[C@@H]4[C@H]3CC[C@@]21CC', 'inactive'),
  ('Oc1cc(-c2nc(-c3ccccc3)[nH]c2-c2ccncc2)ccc1Cl', '2.64 µM (active)'),
  ('O=C1c2cccc(O)c2C(=O)c2c(O)cc(CO)cc21', 'inactive');

Exam item: Given CCc1ccc(C(=O)Nc2cc(CN3CCN(C)CC3)cc(C(F)(F)F)c2)cc1C#Cc1cnc2ccnn2c1 , respond with its Potency.
Marked response: 5.9 µM (active)

Exam item: Identify measured Potency corresponding to Cc1cc(Nc2ncc3c(n2)N(C)C(=O)N(c2cc(NC(=O)c4cccc(C(F)(F)F)c4)ccc2C)C3)n(C)n1
Marked response: 1.87 µM (active)

* * *

# PROCEDURE_TEXT: Quantitative High-Throughput drug screen in 47 multiple myeloma cell lines against the NCATS MIPE library collection: KMS26_JCRB cell viability assay (AID 1918975); also: nearly all actives have a fitted effect of over 45% in size; also: potency is read from the fitted curve at half-maximal effect
# CONDITIONS_USED: KMS26 myeloma cells viability, CellTiter-Glo ATP, 48 h; series mostly up to 45.8 µM
Inconclusive results are not listed. Calls of active or inactive are those of the source. Calls come from the whole dose curve; as a rule, active = well fitted cell-killing curve with a large enough effect; inconclusive = small, poorly fitted or top-dose-only effect, or effect the other way; inactive = no such curve, though single readings can be large or run the other way.
MEASUREMENT_TYPE: Potency

INSERT INTO measurements (compound, result) VALUES
  ('CN1CCc2c(c3ccccc3n2Cc2ccc(C(=O)NO)cc2)C1', '20900 nM (active)'),
  ('COc1cc([C@@H]2c3cc4c(cc3[C@@H](O[C@@H]3O[C@@H]5CO[C@@H](c6cccs6)O[C@@H]5[C@H](O)[C@@H]3O)[C@H]3COC(=O)[C@H]23)OCO4)cc(OC)c1O', '16600 nM (active)'),
  ('CC(C)NC[C@@H](C(=O)N1CCN(c2ncnc3c2[C@H](C)C[C@H]3O)CC1)c1ccc(Cl)cc1', '1320 nM (active)'),
  ('COc1ccc(C=Cc2cc(OC)c(OC)c(OC)c2)cc1NC(=O)[C@H](N)CO', '33.2 nM (active)'),
  ('COc1cc(C[C@@H](CO)[C@H](CO)Cc2ccc(O)c(OC)c2)ccc1O', '1320 nM (active)');

Exam item: Query Potency for CCNC(=O)c1cc2c(-c3cc(OCCN4CCCC4)c(Cl)cc3Cl)nc(N)nc2s1
Marked response: 2350 nM (active)

Exam item: Quickly give me recorded Potency for CO[C@@H]1[C@@H](O)[C@H](O)[C@@H](n2c3c(Cl)cccc3c3c4c(c5c6cccc(Cl)c6[nH]c5c32)C(=O)NC4=O)O[C@@H]1CO
Marked response: 2640 nM (active)

Exam item: Note Potency for the compound shown: C[C@@]12C(=O)OC(=O)[C@@]1(C)C1CCC2O1
Marked response: 2090 nM (active)

Exam item: Tell me measured Potency for O=C(NC1CC1)c1cccc(-c2ccc3c(NC(=O)C4CC4)n[nH]c3c2)c1 please.
Marked response: 2640 nM (active)

Exam item: Tell us which Potency value is on record for Cn1cc(C=CC(=O)c2cccc(F)c2)cc1C=CC(=O)NO
Marked response: 16600 nM (active)

Exam item: Give Potency for OCC(O)C(O)C(O)CO (stereo not given)
Marked response: inactive

Exam item: Identify measured Potency corresponding to NC[C@H]1O[C@H](O[C@H]2[C@@H](O)[C@@H](O[C@H]3O[C@H](CO)[C@@H](O)[C@H](N)[C@@H]3O)[C@H](N)C[C@@H]2N)[C@H](N)C[C@H]1O
Marked response: inactive

Exam item: Tell us which Potency value is on record for Cn1cc(-c2cnn3c(N)c(Br)c([C@H]4CCCNC4)nc23)cn1
Marked response: 8330 nM (active)

Exam item: Determine from records and report Potency for C[C@H]1O[C@H](O[C@H]2[C@H](O)[C@@H](O)[C@@H](O[C@H]3[C@H](O)[C@@H](O)C(O)O[C@H]3CO)O[C@H]2CO)[C@H](O)[C@@H](O)[C@H]1N[C@H]1C=C(CO)[C@@H](O)[C@H](O)[C@@H]1O (stereo not given in full)
Marked response: inactive

Exam item: Name the recorded Potency of the compound listed here: C[C@@]12C[C@@]3(O)O[C@@H](O1)[C@]1(COC(=O)c4ccccc4)[C@@H]3C[C@@]12O[C@@H]1O[C@H](CO)[C@@H](O)[C@H](O)[C@@H]1O
Marked response: inactive

Exam item: Supply measured Potency of CCC(C=C[C@@H]1OC(=O)C=C[C@H]1C)=C[C@H](C)CC=CC(C)=C[C@@H](C)C(=O)[C@@H](C)[C@H](O)[C@@H](C)CC(C)=CC(=O)O in your reply.
Marked response: 31.1 nM (active)

Exam item: Give reported Potency value for COc1cc(OC)c(C=CS(=O)(=O)Cc2ccc(OC)c(NCC(=O)O)c2)c(OC)c1
Marked response: 1320 nM (active)

Exam item: Supply reported Potency belonging to this compound: COc1ccc(C[C@@H](C)[C@@H](C)Cc2ccc(OC)c(OC)c2)cc1OC
Marked response: 590 nM (active)

Exam item: Note Potency for the compound shown: CC(=O)OCC(=O)[C@@]12N=C(C)O[C@H]1C[C@H]1[C@@H]3CCC4=CC(=O)C=C[C@]4(C)[C@@H]3[C@@H](O)C[C@@]12C
Marked response: inactive

Exam item: Answer with the recorded Potency of C[C@](Cc1c[nH]c2ccccc12)(NC(=O)OC1C2CC3CC(C2)CC1C3)C(=O)NC[C@H](NC(=O)CCC(=O)O)c1ccccc1 (stereo not given in full) only.
Marked response: inactive

Exam item: Kindly indicate its recorded Potency. Item: O=C(C=CC#Cc1cccc(NS(=O)(=O)c2ccccc2)c1)NO
Marked response: 3320 nM (active)

Exam item: Give reported Potency value for COc1cc2ncnc(Nc3cccc(Br)c3)c2cc1OC
Marked response: 16600 nM (active)

Exam item: Output Potency of CC(=O)SCC(Cc1ccccc1)C(=O)NCC(=O)OCc1ccccc1 (stereo not given)
Marked response: 18700 nM (active)

Exam item: Given the compound NC(=O)N1CCC(CC(=O)N2CCC([C@H]3c4ncc(Br)cc4CCc4cc(Cl)cc(Br)c43)CC2)CC1 , write its reported Potency.
Marked response: 20900 nM (active)

Exam item: Identify measured Potency corresponding to CCNC(=O)Nc1ccc(-c2nc3c(c(N4CCOC[C@H]4C)n2)CCN(C2COC2)C3)cc1
Marked response: 1660 nM (active)
